Tested on: T. gondii RH strain (RH-Tub-eYFP) tachyzoites
Test: microbe, parasite or virus in culture
Format: cell-based, Toxoplasma gondii
Conditions: Toxoplasma gondii, 72 h, T. gondii, 72 h, screen at 2 μg/mL, replicate 1; read-out: Tg_72h_%Growth_Rep1
readout_type: percent parasite growth at 2 µg/mL (%)
The figure you give is taken to be in %; do not add the unit.

Sample records with percent parasite growth at 2 µg/mL:
smi=O=c1c(-c2ccc(O)cc2)coc2cc(O)ccc12 quantitative_result=125
smi=O=C(O)/C=C/c1ccccc1 quantitative_result=86.5
smi=CO[C@@H]1[C@H](O)C[C@@H](O[C@@H]2C[C@H](Oc3cc4cc5c(c(O)c4c(O)c3C)C(=O)[C@@H](O[C@H]3C[C@@H](O[C@H]4C[C@@H](O[C@H]6C[C@](C)(O)[C@@H](OC(C)=O)[C@H](C)O6)[C@H](O)[C@@H](C)O4)[C@H](O)[C@@H](C)O3)[C@H]([C@H](OC)C(=O)[C@@H](O)[C@@H](C)O)C5)O[C@H](C)[C@@H]2OC(C)=O)O[C@@H]1C quantitative_result=1.51

Field: next compound
Look up percent parasite growth at 2 µg/mL for this compound: CO[C@H]1[C@H](O)C[C@@H](O[C@@H]2C[C@H](Oc3cc4cc5c(c(O)c4c(O)c3C)C(=O)[C@@H](O[C@H]3C[C@H](O[C@H]4C[C@H](O[C@H]6C[C@@](C)(O)[C@@H](OC(=O)C(C)C)[C@H](C)O6)[C@H](O)[C@@H](C)O4)[C@H](O)[C@@H](C)O3)[C@H]([C@H](OC)C(=O)[C@@H](O)[C@@H](C)O)C5)O[C@H](C)[C@H]2OC(C)=O)O[C@@H]1C
2.51
